Each item that follows carries a reported pIC50.
tested on: PC-3M; experiment: Cytotoxicity against human PC-3M cells assessed as reduction in cell viability by CCK-8 assay; type: functional, cell-based
pIC50: −log10 of the molar value.
endpoint-name: pIC50

C=C(C)[C@@H]1CC[C@]2(C(=O)OCCCCCCCCCCn3cncn3)CC[C@]3(C)[C@H](C[C@H]4OC(=O)C[C@@H](O)[C@]5(C)[C@@H]4[C@@]3(C)CC[C@H]5C(=C)C)[C@@H]12 ... 4.70
C=C(C)[C@@H]1CC[C@]2(C(=O)OCCCCCCCCCCn3ccnc3C)CC[C@]3(C)[C@H](C[C@@H](O)[C@@H]4[C@@]5(C)C(CC(=O)OC)OC(C)(C)C5CC[C@]43C)[C@@H]12 (stereo partly drawn) ... 4.99
C=C(C)[C@@H]1CC[C@]2(C(=O)OCCCCCCn3ccnc3CC)CC[C@]3(C)[C@H](C[C@H]4OC(=O)C[C@@H](O)[C@]5(C)[C@@H]4[C@@]3(C)CC[C@H]5C(=C)C)[C@@H]12 ... 4.89

Value source: ChEMBL document CHEMBL5143734
